System: PSMA-expressing LNCaP tumor xenografts
METHOD NOTES: Ex vivo biodistribution in LNCaP tumor-bearing mice
STUDY CONDITIONS: LNCaP tumor-bearing mice, 1 h post injection, mean ± SD, n = 4
Consider the following compounds and their measured Bone uptake readings.
Quick reminder: number only, in %ID/g, skip the unit.

The cases that follow already have their Bone uptake on record.
{"COMPOUND": "N#C[C@@H]1CC(F)(F)CN1C(=O)CNC(=O)c1ccnc2ccc(OCCCc3cn(CC(=O)N[C@@H](CCCCNC(=O)CN4CCN(CC(=O)[O-])CCN(CC(=O)[O-])CCN(CC(=O)[O-])CC4)C(=O)NCC(=O)NC[C@H]4CC[C@H](C(=O)N[C@@H](Cc5c6ccccc6cc6ccccc56)C(=O)NCCCC[C@H](NC(=O)N[C@@H](CCC(=O)O)C(=O)O)C(=O)O)CC4)nn3)cc12.[68Ga+3] [[^68Ga]Ga-AV01017]", "VALUE REPORTED": 4.05}
{"COMPOUND": "N#C[C@@H]1CC(F)(F)CN1C(=O)CNC(=O)c1ccnc2ccc(OCc3cn(CC(=O)N[C@@H](CCCCNC(=O)CN4CCN(CC(=O)[O-])CCN(CC(=O)[O-])CCN(CC(=O)[O-])CC4)C(=O)NCC(=O)NC[C@H]4CC[C@H](C(=O)N[C@@H](Cc5c6ccccc6cc6ccccc56)C(=O)NCCCC[C@H](NC(=O)N[C@@H](CCC(=O)O)C(=O)O)C(=O)O)CC4)nn3)cc12.[68Ga+3] [[^68Ga]Ga-AV01038]", "VALUE REPORTED": 4.64}
{"COMPOUND": "N#C[C@@H]1CC(F)(F)CN1C(=O)CNC(=O)c1ccnc2ccc(-c3cn(CC(=O)N[C@@H](CCCCNC(=O)CN4CCN(CC(=O)[O-])CCN(CC(=O)[O-])CCN(CC(=O)[O-])CC4)C(=O)NCC(=O)NC[C@H]4CC[C@H](C(=O)N[C@@H](Cc5c6ccccc6cc6ccccc56)C(=O)NCCCC[C@H](NC(=O)N[C@@H](CCC(=O)O)C(=O)O)C(=O)O)CC4)nn3)cc12.[68Ga+3] [[^68Ga]Ga-AV01030]", "VALUE REPORTED": 4.48}

Now consider a different compound.
Reported Bone uptake for N#C[C@@H]1CC(F)(F)CN1C(=O)CNC(=O)c1ccnc2ccc(OCCCN3CCN(C(=O)CN4CCN(CC(=O)[O-])CCN(CC(=O)[O-])CCN(CC(=O)[O-])CC4)CC3)cc12.[68Ga+3] [[^68Ga]Ga-FAPI-04, reference compound] : what is it? 4.27
